Target: T1, human IL1RAP on the cell surface (human, UniProt Q9NPH3 21-570)
T1 sequence (looked up): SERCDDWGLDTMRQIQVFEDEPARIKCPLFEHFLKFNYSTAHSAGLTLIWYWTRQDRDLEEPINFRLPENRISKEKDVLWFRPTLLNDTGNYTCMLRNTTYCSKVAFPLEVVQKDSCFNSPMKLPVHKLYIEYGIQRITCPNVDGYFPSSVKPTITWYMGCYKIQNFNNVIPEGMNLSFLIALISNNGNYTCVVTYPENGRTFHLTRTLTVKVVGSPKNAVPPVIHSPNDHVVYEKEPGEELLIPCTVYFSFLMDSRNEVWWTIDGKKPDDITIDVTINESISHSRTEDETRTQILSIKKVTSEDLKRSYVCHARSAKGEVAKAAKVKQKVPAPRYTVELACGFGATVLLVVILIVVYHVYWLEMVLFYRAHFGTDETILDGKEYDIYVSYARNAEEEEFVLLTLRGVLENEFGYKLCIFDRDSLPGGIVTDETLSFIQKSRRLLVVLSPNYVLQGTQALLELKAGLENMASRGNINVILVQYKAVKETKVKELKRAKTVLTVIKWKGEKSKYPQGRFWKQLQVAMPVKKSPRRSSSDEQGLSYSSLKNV
Assay: cell-based or functional assay
measure-name: IC50 of IL-1α signaling (HEK-Blue assay) (nM)
Reply numerically in nM, unit not repeated.

Recorded IC50 of IL-1α signaling (HEK-Blue assay), per entry:
[
  {
    "binder": "h48D2 VH1:VL4 (antibody, human IgG1, kappa, L234A L235A, V domains shown, Humanized; also called VL4:VH1) VH: EVQLEESGGGLVKPGGSLRLSCAASGPSLSHFDITWVRQAPGKGLEWVSTISPGVSTYYASWAKSRFTISRDNSKNTLYLQMNSLRAEDTAVYYCARGGVGSSWKAFDLWGRGTLVTVSS VL: ELVMTQSPSSVSASVGDRVTITCQASESISTALAWYQQKPGKAPKLLIYKASTLPSGVPSRFSGSGSGTDFTLTINSLQPEDFATYYCQQGFSSGNVHNAFGGGTKVEIKR",
    "IC50 of IL-1α signaling (HEK-Blue assay), nM": 347
  },
  {
    "binder": "h48D2 VH5:VL4 (antibody, human IgG1, kappa, L234A L235A, V domains shown, Humanized; also called VL4:VH5; humanized 48D2 variant VH5:VL4) VH: QEQLEESGGGLVKPGGTLSLTCTVSGPSLSHFDITWIRQAPGSGLEWIGTISPGVSTYYASWAKSRVTISVDTSLNTVSLKLSSVTAADTATYFCARGGVGSSWKAFDLWGPGTLVTISS VL: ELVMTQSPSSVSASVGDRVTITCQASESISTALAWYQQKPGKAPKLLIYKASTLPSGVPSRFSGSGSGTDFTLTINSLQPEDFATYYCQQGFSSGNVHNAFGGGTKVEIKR",
    "IC50 of IL-1α signaling (HEK-Blue assay), nM": 6.47
  }
]

Shifting focus to the binder that follows.
Query block: Supply IC50 of IL-1α signaling (HEK-Blue assay) value. Item: h48D2 VH1:VL2 (antibody, human IgG1, kappa, L234A L235A, V domains shown, Humanized; also called VL2:VH1) VH: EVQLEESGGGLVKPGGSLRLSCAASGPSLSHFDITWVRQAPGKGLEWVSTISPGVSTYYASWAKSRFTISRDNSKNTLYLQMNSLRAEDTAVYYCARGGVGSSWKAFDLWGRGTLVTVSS VL: QIVLTQSPATLSASVGDRVTITCQASESISTALAWYQQKPGKAPKLLIYKASTLPSGVPSRFSGSGSGTEFTLTISSLQPDDSATYYCQQGFSSGNVHNAFGQGTKLEIKR
Result block: 242
